Study system: T1, human OX40 on cells (CHO-hOX40, 293HEK-hOX40, Jurkat-hOX40, activated primary CD4+ T cells) (human, UniProt P43489 29-277)
T1 construct: whole, on cells; The cell type is told in each assay; also called CHO-OX40
T1 sequence (looked up): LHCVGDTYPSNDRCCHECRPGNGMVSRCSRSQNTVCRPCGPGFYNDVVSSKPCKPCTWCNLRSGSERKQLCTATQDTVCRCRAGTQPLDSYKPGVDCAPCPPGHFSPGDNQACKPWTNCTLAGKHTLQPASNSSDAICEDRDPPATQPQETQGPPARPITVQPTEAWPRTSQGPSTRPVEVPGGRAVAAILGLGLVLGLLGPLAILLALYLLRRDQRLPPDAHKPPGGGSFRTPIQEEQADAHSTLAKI
Method: flow cytometry, activated CD4+ T cells, donor 1, 100 nM
In this section, each of the binders is paired with its reported MFI.
Your answer is read as MFI, so omit the unit and give the number.

Below, 3 binders whose answers are already recorded.
{"Binder": "ADI-20066, IgG1 format (antibody, V domains shown, Made in yeast) VH: QLQLQESGPGLVKPSETLSLTCTVSGGSISSSSYYWGWIRQPPGKGLEWIGSIYYSGSTYYNPSLKSRVTISVDTSKNQFSLKLSSVTAADTAVYYCARDPGYSASPNWFDPWGQGTLVTVSS VL: EIVLTQSPGTLSLSPGERATLSCRASQSVSSSFLAWYQQKPGQAPRLLIYGASSRATGIPDRFSGSGSGTDFTLTISRLEPEDFAVYYCQQYDVFPITFGGGTKVEIKR", "Readout number": 134000}
{"Binder": "ADI-20048, IgG1 format (antibody, V domains shown, Made in yeast) VH: QVQLQESGPGLVKPSETLSLTCTVSGGSISSYYWSWIRQPPGKGLEWIGYIYSSGSTNYNPSLKSRVTISVDTSKNQFSLKLSSVTAADTAVYYCARDAPGGSSYQDYYMDVWGKGTTVTVSS VL: EIVLTQSPATLSLSPGERATLSCRASQSVSSYLAWFQQKPGQAPRLLIYDASNRATGIPARFSGSGSGTDFTLTISSLEPEDFAVYYCQQAFSMPPTFGGGTKVEIKR", "Readout number": 43100}
{"Binder": "ADI-20113, IgG1 format (antibody, V domains shown, Made in yeast) VH: QVQLVESGGGVVQPGRSLRLSCAASGFTFSSYGMHWVRQAPGKGLEWVAVISYDGSNKYYADSVKGRFTISRDNSKNTLYLQMNSLRAEDTAVYYCARGRPWYSETGTSAFDIWGQGTMVTVSS VL: EIVMTQSPATLSVSPGERATLSCRASQSVSSNLAWYQQKPGQAPRLLIYSASTRATGIPARFSGSGSGTEFTLTISSLQSEDFAVYYCQQHNVYPPYTFGGGTKVEIKR", "Readout number": 84400}

Let us examine a further case.
Read off the recorded MFI for IgG1 control (antibody, V domains shown, Negative control; The printed entries seem to begin with a leader peptide) VH: EVRLLESGGGLVQPGGSLRLSCAASGFTFSNYAMGWVRQAPGKGLEWVSAISGSGGSTYYADSVKGRFTTSRDDSKNALYLQMNSLRAEDTAVYYCARGGPGWYAADVWGQGTTVTVSS VL: DIQMTQSPSSLSASVGDRVTITCRASQSISSYLNWYQQKPGKAPKLLIYAASSLQSGVPSRFSGSGSGTDFTLTISSLQPEDFATYYCQQADLPAFAFGGGTKVEIKR 6310
